Listing of recorded PAM type by entry.
molecular target: human alpha 7-wt nAChR (Homo sapiens, UniProt P36544); construct: expressed in transfected cells; test: Patch-clamp current recording (whole-cell voltage-clamp, GH4C1 cells); type: cell-based; set-up: key: Type 0 compounds minimally change the effect size of the current elicited by 1 mM choline.; Type 1 compounds enhance the effect size of the current elicited by 1 mM choline but minimally alter the kinetics of the receptor.; Type 2 compounds enhance the effect size of the current elicited by 1 mM choline while reducing the rate and/or the extent of desensitization.; Type 3 compounds enhance the effect size of the current elicited by 1 mM choline. When tested at higher concentrations up to 10 µM they completely inhibit desensitization; Type 4 compounds allow for an initial desensitization of the receptor followed by a re-opening of the receptor during agonist application; settings: current elicited by 1 mM choline
Sequence (P36544 23-502): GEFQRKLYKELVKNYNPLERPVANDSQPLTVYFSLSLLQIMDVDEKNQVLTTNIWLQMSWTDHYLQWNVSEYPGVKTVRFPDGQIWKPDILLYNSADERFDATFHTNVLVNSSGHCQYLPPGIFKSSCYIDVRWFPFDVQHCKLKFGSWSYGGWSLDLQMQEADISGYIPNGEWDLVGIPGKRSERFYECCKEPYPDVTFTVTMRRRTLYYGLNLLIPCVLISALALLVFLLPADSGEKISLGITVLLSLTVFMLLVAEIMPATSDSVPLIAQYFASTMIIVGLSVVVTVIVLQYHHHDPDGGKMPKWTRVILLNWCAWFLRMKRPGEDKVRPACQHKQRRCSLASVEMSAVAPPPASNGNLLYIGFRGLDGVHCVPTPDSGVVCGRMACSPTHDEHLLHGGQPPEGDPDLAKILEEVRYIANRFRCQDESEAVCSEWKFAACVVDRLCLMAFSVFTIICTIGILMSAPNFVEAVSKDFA
Number, no unit, nothing else.

Lab note: compound Cc1cc(-c2c(F)cc(N3CCO[C@@H](C(F)(F)F)C3)cc2CNC(=O)C(C)C)cc(C)n1 [Compound 99] tested on human alpha 7-wt nAChR (Homo sapiens, UniProt P36544); recorded PAM type was 3

Where do the numbers come from? From patent EP2678315B1.
